Parameter: IC50. Scope: all listed entries.
Test system: KRAS PDC tumor spheroids (HUVEC+MSC), viability;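 note: spheroids exposed to compounds for seven days before readout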
Experiment: Anticancer human tumor 254851-301-R-J1-PDC patient-derived colon carcinoma cell line growth inhibition [KRAS2]
Settings: curve of first compound; second compound 1 µM
Excerpt: Multicellular complex tumor spheroid response to RAS pathway inhibitors in combination with a targeted agents in patient-derived cell lines with oncogenic KRAS variants from multiple cancer types A high-throughput screen of multi-cell type tumor spheroids was designed to identify active combinations of targeted small molecules and KRAS pathway inhibitors. […] Compounds. […] If the clinical Cmax for an agent had not been determined, the highest concentration tested was 10 microM. […]
Test Readout: IC50 (nM)

[
  {
    "Compound": "COC(=O)c1ccc2c(C(=Nc3ccc(N(C)C(=O)CN4CCN(C)CC4)cc3)c3ccccc3)c(O)[nH]c2c1 + CC1OCC2(CCN(c3cnc(Sc4ccnc(N)c4Cl)c(N)n3)CC2)C1N",
    "Comparison Operator": ">",
    "Quantitative Result": 10000
  },
  {
    "Compound": "Cn1ncnc1[C@H]1c2n[nH]c(=O)c3cc(F)cc(c23)N[C@@H]1c1ccc(F)cc1 + C=CC(=O)N1CCN(c2nc(OCC3CCCN3C)nc3c2CCN(c2cccc4cccc(C)c24)C3)CC1CC#N",
    "Comparison Operator": ">",
    "Quantitative Result": 100
  },
  {
    "Compound": "CC1(C)CCC(CN2CCN(c3ccc(C(=O)NS(=O)(=O)c4ccc(NCC5CCOCC5)c([N+](=O)[O-])c4)c(Oc4cnc5[nH]ccc5c4)c3)CC2)=C(c2ccc(Cl)cc2)C1 + CNCc1ccccc1-c1csc(C(C)Nc2nc(C)nc3cc(OC)c(OC)cc23)c1",
    "Comparison Operator": "=",
    "Quantitative Result": 3120
  },
  {
    "Compound": "CC(=O)OC12COC1CC(O)C1(C)C(=O)C(O)C3=C(C)C(OC(=O)C(O)C(NC(=O)OC(C)(C)C)c4ccccc4)CC(O)(C(OC(=O)c4ccccc4)C21)C3(C)C (stereo not given) + C=CC(=O)N1CCN(c2nc(OCC3CCCN3C)nc3c2CCN(c2cccc4cccc(C)c24)C3)CC1CC#N",
    "Comparison Operator": "=",
    "Quantitative Result": 140
  },
  {
    "Compound": "CC(C)n1nc(-c2ccc3oc(N)nc3c2)c2c(N)ncnc21 + CC1OCC2(CCN(c3cnc(Sc4ccnc(N)c4Cl)c(N)n3)CC2)C1N",
    "Comparison Operator": "=",
    "Quantitative Result": 18.6
  }
]
